Molecular target: T1, human CEACAM5 (carcinoembryonic antigen, CEA) on cells (human, UniProt P06731 35-685)
T1 construct: endogenous on MKN45 gastric adenocarcinoma cells; full-length cDNA stably transfected in the CHO-K1 clones; also called huCEACAM5; MKN45 cells
T1 sequence: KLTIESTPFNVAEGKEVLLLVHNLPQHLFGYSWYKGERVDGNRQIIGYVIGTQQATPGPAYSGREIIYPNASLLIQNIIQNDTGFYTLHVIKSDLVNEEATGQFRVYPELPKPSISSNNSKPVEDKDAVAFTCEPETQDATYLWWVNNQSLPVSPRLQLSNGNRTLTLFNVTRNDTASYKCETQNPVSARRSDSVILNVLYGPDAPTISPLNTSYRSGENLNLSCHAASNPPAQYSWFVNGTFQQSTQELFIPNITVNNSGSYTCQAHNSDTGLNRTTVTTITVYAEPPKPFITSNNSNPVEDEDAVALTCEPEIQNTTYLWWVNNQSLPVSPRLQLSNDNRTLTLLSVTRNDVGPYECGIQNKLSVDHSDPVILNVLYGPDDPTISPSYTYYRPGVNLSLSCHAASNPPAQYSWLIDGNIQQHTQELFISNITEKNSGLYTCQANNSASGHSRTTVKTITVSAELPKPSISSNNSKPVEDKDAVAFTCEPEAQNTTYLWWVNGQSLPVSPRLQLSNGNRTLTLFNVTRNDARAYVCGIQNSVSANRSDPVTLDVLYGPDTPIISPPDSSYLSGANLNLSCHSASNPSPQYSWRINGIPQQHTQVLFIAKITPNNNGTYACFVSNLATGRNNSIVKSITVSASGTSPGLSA
Assay: flow cytometry, MKN45 cells
Design: unit not given beside the values
For each of the binders below, state its AUC.
// no unit, no text: just the number

For record P1AE3110 (antibody, IgG1, V domains shown, huIgG1 P329G LALA; also called MFE-H27 / MFE-L26) VH: QVQLVQSGAEVKKPGASVKVSCKASGFNIKDSYMHWVRQAPGQGLEWMGWIDPENGDTEYAPKFQGRVTMTTDTSISTAYMELSRLRSDDTAVYYCARGTPTGPYYFDYWGQGTLVTVSS VL: EIQMTQSPSSLSASVGDRVTITCRASQSISSYMHWYQQKPGKAPKLLIYSTSNLASGVPSRFSGSGSGTDFTLTISSLQPEDFATYYCQQRSSYPLTFGGGTKLEIK the listed AUC is 547

For record P1AE3098 (antibody, IgG1, V domains shown, huIgG1 P329G LALA; also called MFE-H27 / MFE-L28) VH: QVQLVQSGAEVKKPGASVKVSCKASGFNIKDSYMHWVRQAPGQGLEWMGWIDPENGDTEYAPKFQGRVTMTTDTSISTAYMELSRLRSDDTAVYYCARGTPTGPYYFDYWGQGTLVTVSS VL: EIQMTQSPSSLSASVGDRVTITCRASSSVPYMHWLQQKPGKAPKLLIYSTSNLASGVPSRFSGSGSGTDFTLTISSVQPEDFATYYCQQRSSYPLTFGGGTKLEIK the listed AUC is 1190

For record P1AE3112 (antibody, IgG1, V domains shown, huIgG1 P329G LALA; also called MFE-H25 / MFE-L26) VH: QVQLVQSGAEVKKPGASVKVSCKASGYTFKDSYMHWVRQAPGQGLEWMGWIDPENGDTEYAPKFQGRVTMTTDTSISTAYMELSRLRSDDTAVYYCNEGTPTGPYYFDYWGQGTLVTVSS VL: EIQMTQSPSSLSASVGDRVTITCRASQSISSYMHWYQQKPGKAPKLLIYSTSNLASGVPSRFSGSGSGTDFTLTISSLQPEDFATYYCQQRSSYPLTFGGGTKLEIK the listed AUC is 551
